Each recorded value in this set is attributed to paper PMC10786891.

Record form. Attribute: Kd. Fill in for each entry.
System Under Test: T1, EsCas13d, nuclease-dead (Eubacterium siraeum, UniProt B0MS50, R295A;H300A;R849A;H854A)
T1 sequence: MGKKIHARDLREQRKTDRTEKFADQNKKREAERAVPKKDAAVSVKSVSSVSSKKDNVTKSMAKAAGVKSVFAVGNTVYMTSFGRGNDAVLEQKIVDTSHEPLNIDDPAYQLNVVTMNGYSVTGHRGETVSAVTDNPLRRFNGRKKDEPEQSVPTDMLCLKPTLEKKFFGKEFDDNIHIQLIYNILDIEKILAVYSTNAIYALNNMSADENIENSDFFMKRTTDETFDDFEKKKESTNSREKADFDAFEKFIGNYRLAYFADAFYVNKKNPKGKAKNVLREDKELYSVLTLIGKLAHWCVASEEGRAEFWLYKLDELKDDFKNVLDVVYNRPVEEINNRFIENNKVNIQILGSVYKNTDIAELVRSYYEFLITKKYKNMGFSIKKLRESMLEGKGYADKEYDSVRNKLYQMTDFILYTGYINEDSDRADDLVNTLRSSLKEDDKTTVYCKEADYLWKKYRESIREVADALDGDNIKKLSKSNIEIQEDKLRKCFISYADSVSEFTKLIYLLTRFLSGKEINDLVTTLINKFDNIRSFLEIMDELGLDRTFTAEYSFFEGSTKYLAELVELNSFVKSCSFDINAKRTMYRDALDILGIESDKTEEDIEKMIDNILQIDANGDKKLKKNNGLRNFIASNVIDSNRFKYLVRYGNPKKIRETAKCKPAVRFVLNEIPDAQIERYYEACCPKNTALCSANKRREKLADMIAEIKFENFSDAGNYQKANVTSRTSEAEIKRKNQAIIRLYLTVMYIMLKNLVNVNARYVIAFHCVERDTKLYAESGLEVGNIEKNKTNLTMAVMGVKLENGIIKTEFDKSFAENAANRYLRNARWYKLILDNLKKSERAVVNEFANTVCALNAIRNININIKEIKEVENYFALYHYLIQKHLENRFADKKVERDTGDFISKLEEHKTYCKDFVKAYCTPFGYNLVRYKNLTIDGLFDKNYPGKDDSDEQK
Experiment Notes: crRNA (strand 1, pre-loaded); Mg2+; 40 mM Tris-HCl pH 7.5, 150 mM NaCl, 6 mM MgCl2, 1 mM DTT, 0.1% Tween-20, 0.2 mg/ml BSA; 25 C; 10 min per concentration, then washed
Assay Context: tags: His6-TwinStrep-SUMO cleaved; N-terminal SNAP kept (SNAP-Surface 488); label: 3' end held by stalled T7 RNA polymerase
State the answer as a number, implicitly in nM.

Value of measured Kd for the entry target 2 MT 5'PFS UAU 3'PFS CUU (mixed) RNA 1: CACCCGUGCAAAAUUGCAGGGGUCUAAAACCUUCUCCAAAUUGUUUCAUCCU RNA 2: GGGAAUGGAUCCACAUCUACGAAUUCUAUAGGAUGAAACAAUUUGGAGAAGCUUAGAUCGGAAGAGCACACGU : 54

Value of measured Kd for the entry target 1 U3A,U11C (mixed) RNA 1: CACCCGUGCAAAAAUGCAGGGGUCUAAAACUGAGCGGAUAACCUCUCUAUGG RNA 2: GGGAAUGGAUCCACAUCUACGAAUUCGUACCAUAGAGAGGCUAUCCGCACACCGAGAUCGGAAGAGCACACGU : 10.3

Value of measured Kd for the entry target 1 U10A,U11C (mixed) RNA 1: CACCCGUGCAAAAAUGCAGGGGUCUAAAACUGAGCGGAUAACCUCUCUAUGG RNA 2: GGGAAUGGAUCCACAUCUACGAAUUCGUACCAUAGAGAGGCAAUCCGCUCACCGAGAUCGGAAGAGCACACGU : 9.96

Value of measured Kd for the entry target 1 insA 3' of 2,insU 3' of 1 (mixed) RNA 1: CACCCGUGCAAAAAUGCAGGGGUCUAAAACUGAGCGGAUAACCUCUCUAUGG RNA 2: GGGAAUGGAUCCACAUCUACGAAUUCGUACCAUAGAGAGGUUAUCCGCUCAAUCCGAGAUCGGAAGAGCACACGU : 10.5

Value of measured Kd for the entry target 1 insA 3' of 21,insG 3' of 3 (mixed) RNA 1: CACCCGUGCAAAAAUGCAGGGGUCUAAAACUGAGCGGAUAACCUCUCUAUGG RNA 2: GGGAAUGGAUCCACAUCUACGAAUUCGUACCAAUAGAGAGGUUAUCCGCUGCACCGAGAUCGGAAGAGCACACGU : 11.8

Value of measured Kd for the entry target 1 C2G,U11C (mixed) RNA 1: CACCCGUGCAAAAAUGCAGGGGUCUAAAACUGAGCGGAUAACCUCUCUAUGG RNA 2: GGGAAUGGAUCCACAUCUACGAAUUCGUACCAUAGAGAGGCUAUCCGCUGACCGAGAUCGGAAGAGCACACGU : 7.4

Value of measured Kd for the entry target 2 MT 5'PFS AGC 3'PFS CGA (mixed) RNA 1: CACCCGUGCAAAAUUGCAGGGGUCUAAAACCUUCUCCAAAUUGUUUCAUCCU RNA 2: GGGAAUGGAUCCACAUCUACGAAUUCAGCAGGAUGAAACAAUUUGGAGAAGCGAAGAUCGGAAGAGCACACGU : 15
